- Tested on: U2OS
- Assay Comment: Multiplex assay against U2OS
- Format: toxicity, cell-based
- Assay Context: human, 12 h, 10 µM, compound concentration 10 uM, replicate 2
Reported Endpoint: Population Hoechst High Intensity Objects (%)

{"columns": ["Compound", "Measurement Unit", "Measured Value"],
 "data": [
  ["CCCCC[C@H](O)/C=C/[C@H]1[C@H](O)CC(=O)[C@@H]1CCCCCCC(=O)O [ALPROSTADIL]", "%", 2],
  ["O=C(NCCNCC(O)COc1ccc(O)cc1)N1CCOCC1.O=C(NCCNCC(O)COc1ccc(O)cc1)N1CCOCC1.O=C(O)/C=C/C(=O)O (centres undefined) [XAMOTEROL FUMARATE]", "%", 4],
  ["O=C(Nc1cc(-c2ccccc2)nn1-c1ccccc1F)c1ccc([N+](=O)[O-])cc1", "%", 0],
  ["O=c1nc2[nH]c3ccccc3nc-2c(=O)[nH]1 [ALLOXAZINE]", "%", 1],
  ["COc1cc(C(=O)N2CC[C@@H](O)[C@@H](N)C2)cc2nc(-c3cc4ccccc4n3CC3CC3)n(C)c12.Cl", "%", 5],
  ["CCn1c(-c2nc3cc(C(=O)N4CCCC(N)C4)ccc3n2C)cc2ccccc21.Cl (centres undefined)", "%", 1],
  ["Cc1cc(-c2ccc3c(c2)CC[C@H]3N2CC3(CCN(C(=O)Cc4cn5cc(C)sc5n4)CC3)C2)ncn1 [PF-5190457]", "%", 1],
  ["CN1CCN(c2ccc(Nc3c4ccccc4nc4ccccc34)cc2)CC1.Cl.Cl.O", "%", 2],
  ["C[C@@H]1CC(=O)Nc2cccc(-c3ccc4c(c3)c(-c3cnn(C)c3)nn4C)c2N1", "%", 1]
]}

* * *

# Population Tubulin-Different-Phenotype (%) per record follows
- Test system: U2OS
- Assay Comment: Multiplex assay against U2OS
- Format: toxicity, cell-based
- Assay Context: human, 24 h, 1 µM, compound concentration 1 uM, replicate 2
Reported Endpoint: Population Tubulin-Different-Phenotype (%)

{"columns": ["Compound", "Measured Value"],
 "data": [
  ["COCCn1c(C)c(C)s/c1=N\\C(=O)C1C(C)(C)C1(C)C", 4],
  ["Nc1nc(CC(=O)Nc2ccc(CCNC[C@H](O)c3ccccc3)cc2)cs1", 7],
  ["COc1ccc2c(c1OCc1ccccc1)C[C@@H](C(=O)O)N(C(=O)C(c1ccccc1)c1ccccc1)C2", 5],
  ["Cc1nn(C)c2nc(NNC(=O)Nc3cc(Cl)nc(Cl)c3)cc(C(C)C)c12", 4],
  ["CN1CCN(c2ccc(Nc3c4ccccc4nc4ccccc34)cc2)CC1.Cl.Cl.O", 6],
  ["CCC(=O)OCC(=O)[C@@]1(OC(=O)CC)[C@@H](C)C[C@H]2[C@@H]3CCC4=CC(=O)C=C[C@]4(C)[C@@]3(Cl)[C@@H](O)C[C@@]21C [BECLOMETHASONE DIPROPIONATE]", 3],
  ["Cc1sc2c(c1C)C(c1ccc(Cl)cc1)=N[C@H](CC(=O)OC(C)(C)C)c1nnc(C)n1-2", 2],
  ["CN(C)C(=O)Cn1cc(-c2ccc(-c3nnc4ccccn34)cc2)cn1", 4],
  ["CN1CCN2c3ccccc3Cc3ccccc3C2C1.Cl (configuration not stated) [MIANSERIN HYDROCHLORIDE]", 3],
  ["COc1cc(Nc2ncc3c(n2)-c2ccc(Cl)cc2C(c2c(F)cccc2OC)=NC3)ccc1C(=O)O", 2],
  ["CN1C[C@H](C(=O)N[C@]2(C)O[C@@]3(O)[C@@H]4CCCN4C(=O)[C@H](Cc4ccccc4)N3C2=O)C[C@@H]2c3cccc4[nH]cc(c34)C[C@H]21.CS(=O)(=O)O [DIHYDROERGOTAMINE MESYLATE]", 4],
  ["Cc1ccc(OCC(O)C(C)NC(C)C)c2c1CCC2.Cl (configuration not stated)", 0],
  ["O=C(O)CCC/C=C\\CC1C(O)CC(O)C1/C=C/C(O)COc1cccc(Cl)c1 (configuration not stated)", 4],
  ["COCCCN1CCC(NC(=O)c2cc(Cl)c(N)c3c2OCC3)CC1 [PRUCALOPRIDE]", 7],
  ["O=c1ccc2ccc(OCCCCN3CCN(c4cccc5sccc45)CC3)cc2[nH]1", 16],
  ["Cc1cc(NC(=O)NCCN2CCC(O)(Cc3ccccc3)CC2)c2ccccc2n1", 3],
  ["Cc1c(Cc2ccc3ccccc3n2)c2cc(F)ccc2n1CC(=O)O", 3]
]}

* * *

- Tested on: Fibroblast
- Assay Comment: Multiplex assay against human fibroblast
- Format: toxicity, cell-based
- Assay Context: 12 h, 10 µM, compound concentration 10 uM, replicate 1
Reported Endpoint: Population Hoechst High Intensity Objects (%)

{"columns": ["Compound", "Measured Value"],
 "data": [
  ["Cc1cc(NC(=O)NCCN2CCC(O)(Cc3ccccc3)CC2)c2ccccc2n1", "1%"],
  ["C=CCN1C[C@H](C(=O)N(CCCN(C)C)C(=O)NCC)C[C@@H]2c3cccc4[nH]cc(c34)C[C@H]21", "3%"],
  ["CC(F)(F)CN1CCOc2c(nn(-c3ccccc3Cl)c2-c2ccc(Cl)cc2)C1=O", "1%"],
  ["Cn1cc(C(=O)OCC2CCN(CCNS(C)(=O)=O)CC2)c2ccccc21", "3%"],
  ["COCCCN1CCC(NC(=O)c2cc(Cl)c(N)c3c2OCC3)CC1 [PRUCALOPRIDE]", "0%"],
  ["O=C(O)CCC/C=C\\CC1C(O)CC(O)C1/C=C/C(O)COc1cccc(Cl)c1 (centres undefined)", "12%"],
  ["Cc1cc(-c2ccc3c(c2)CC[C@H]3N2CC3(CCN(C(=O)Cc4cn5cc(C)sc5n4)CC3)C2)ncn1", "4%"],
  ["CN1CCC(C(=O)c2cccc(NC(=O)c3c(F)cc(F)cc3F)n2)CC1", "4%"],
  ["COc1ccc2c(c1OCc1ccccc1)C[C@@H](C(=O)O)N(C(=O)C(c1ccccc1)c1ccccc1)C2", "0%"]
]}

* * *

- System: HEK-293T
- Assay Comment: Multiplex assay against HEK293T
- Format: toxicity, cell-based
- Assay Context: human, 12 h, 10 µM, compound concentration 10 uM, replicate 1
# Population Fragmented Nuclei (%) per record follows

{"columns": ["Compound", "Measurement Unit", "Population Fragmented Nuclei (%)"],
 "data": [
  ["CCCCC[C@H](O)/C=C/[C@H]1[C@H](O)CC(=O)[C@@H]1CCCCCCC(=O)O", "%", 7],
  ["CCC(=O)OCC(=O)[C@@]1(OC(=O)CC)[C@@H](C)C[C@H]2[C@@H]3CCC4=CC(=O)C=C[C@]4(C)[C@@]3(Cl)[C@@H](O)C[C@@]21C [BECLOMETHASONE DIPROPIONATE]", "%", 8],
  ["Cc1sc2c(c1C)C(c1ccc(Cl)cc1)=N[C@H](CC(=O)OC(C)(C)C)c1nnc(C)n1-2", "%", 7],
  ["CC(C)(O)C(=O)N1CCN(c2ccc(C(F)(F)F)c(C3=C(c4c[nH]c5ccccc45)C(=O)NC3=O)c2)CC1", "%", 4],
  ["CC(C)(C)c1ccc(CSc2cnn(C(C)(C)C)c(=O)c2Cl)cc1", "%", 6],
  ["O=C(O)CCC/C=C\\CC1C(O)CC(O)C1/C=C/C(O)COc1cccc(Cl)c1 (configuration not stated)", "%", 7],
  ["C[C@H](NC(=O)CNC(=O)c1cccc(Cl)c1)c1ccccc1", "%", 6],
  ["COCCn1c(C)c(C)s/c1=N\\C(=O)C1C(C)(C)C1(C)C", "%", 33],
  ["CN1CCC(C(=O)c2cccc(NC(=O)c3c(F)cc(F)cc3F)n2)CC1", "%", 6],
  ["CN1CCN(c2ccc(Nc3c4ccccc4nc4ccccc34)cc2)CC1.Cl.Cl.O", "%", 24],
  ["CCCCCCNC(=O)Nc1ccc(S(=O)(=O)Nc2ccc(CCNC[C@H](O)COc3ccc(O)cc3)cc2)cc1", "%", 10],
  ["S=C(NCCCc1c[nH]cn1)NCCCN(Cc1ccc(Cl)c(Cl)c1)c1ccc(Br)cn1", "%", 4],
  ["Cn1cc(C(=O)OCC2CCN(CCNS(C)(=O)=O)CC2)c2ccccc21", "%", 10],
  ["CCc1nn2c(C)cc(C)nc2c1Cc1ccc(-c2nnc(C3CCNCC3)o2)cc1", "%", 6],
  ["CN1C[C@H](C(=O)N[C@]2(C)O[C@@]3(O)[C@@H]4CCCN4C(=O)[C@H](Cc4ccccc4)N3C2=O)C[C@@H]2c3cccc4[nH]cc(c34)C[C@H]21.CS(=O)(=O)O [DIHYDROERGOTAMINE MESYLATE]", "%", 7],
  ["COc1ccc2[nH]c(I)c(CCNC(C)=O)c2c1", "%", 11],
  ["CSc1nc(NC2CCCC2)c([N+](=O)[O-])c(NC2CCCC2)n1", "%", 6]
]}
